- TARGET ENTITY: dengue virus helicase (Dengue virus type 2)
- Construct: dengue virus helicase activity
- Sequence (P29990 1476-2093): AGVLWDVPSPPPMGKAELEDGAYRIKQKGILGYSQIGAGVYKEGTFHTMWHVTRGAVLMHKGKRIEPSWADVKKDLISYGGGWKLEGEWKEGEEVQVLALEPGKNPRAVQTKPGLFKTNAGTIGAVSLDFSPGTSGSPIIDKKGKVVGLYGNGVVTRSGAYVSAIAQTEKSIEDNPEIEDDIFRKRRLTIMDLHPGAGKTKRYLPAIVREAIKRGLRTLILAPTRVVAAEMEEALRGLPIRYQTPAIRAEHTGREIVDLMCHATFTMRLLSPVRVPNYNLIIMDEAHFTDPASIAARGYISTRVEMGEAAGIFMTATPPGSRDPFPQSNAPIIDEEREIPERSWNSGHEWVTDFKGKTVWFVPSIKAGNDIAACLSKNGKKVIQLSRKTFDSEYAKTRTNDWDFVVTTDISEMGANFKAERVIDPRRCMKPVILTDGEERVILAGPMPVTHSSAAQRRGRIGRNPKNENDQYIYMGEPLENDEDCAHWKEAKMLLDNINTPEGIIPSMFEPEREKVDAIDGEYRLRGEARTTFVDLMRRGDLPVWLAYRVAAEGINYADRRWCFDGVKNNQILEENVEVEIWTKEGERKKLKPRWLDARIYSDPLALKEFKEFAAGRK
- EXPERIMENTAL DETAILS: Inhibition of dengue virus helicase activity
- Format: biochemical
- Excerpt: A degree of inhibition of dengue virus helicase activity depending on the concentrations of 6 compounds was confirmed (IC50 values presented, FIG. 4).
Starred links: 1 amine or outer side, 2 acyl side, 3 side chain; linkers in the order of their positions; H or OH if unused. Positions of bridges follow the written chain, without caps; N, C: chain ends. Non-standard residues stand in square brackets, D forms with d. Residues, ends and D or L forms follow the SMILES beside them. *: point of attachment. hTyr(3S-OH,4S-OH,3'-OSO3H) = N[C@H](C(=O)O)[C@H](O)[C@@H](O)c1ccc(O)c(OS(=O)(=O)O)c1; Orn(4R-OH,5R-OH) = O=C([C@H](C[C@@H](O)[C@@H](O)N[*:3])N[*:1])[*:2]; Pro(3S-OH,4S-Me) = C[C@H]1CN[C@H](C(=O)O)[C@H]1O; X1 = CCCCCOc1ccc(-c2cc(-c3ccc(C(=O)*)cc3)no2)cc1; Gln(3R-OH) = NC(=O)C[C@@H](O)[C@H](N)C(=O)O; Hyp = O=C(O)[C@@H]1C[C@@H](O)CN1

- COMPOUND: "O=C1Nc2ccc(Cl)cc2[C@@](C#CC2CC2)(C(F)(F)F)O1 [Efavirenz]"
  TARGET ENTITY: "dengue virus helicase (Dengue virus type 2)"
  IC50 [µM]: 38.5
- COMPOUND: "CCCCCOc1ccc(-c2cc(-c3ccc(C(=O)N[C@H]4C[C@@H](O)[C@@H](O)NC(=O)[C@@H]5[C@@H](O)[C@@H](C)CN5C(=O)[C@H]([C@H](O)CC(N)=O)NC(=O)[C@H]([C@H](O)[C@@H](O)c5ccc(O)c(OS(=O)(=O)O)c5)NC(=O)[C@@H]5C[C@@H](O)CN5C(=O)[C@H]([C@@H](C)O)NC4=O)cc3)no2)cc1 [Micafungin] (X1-[Orn(4R-OH,5R-OH)]T[Hyp][hTyr(3S-OH,4S-OH,3'-OSO3H)][Gln(3R-OH)][Pro(3S-OH,4S-Me)]; lactam 1-C)"
  TARGET ENTITY: "dengue virus helicase (Dengue virus type 2)"
  IC50 [µM]: 5
- COMPOUND: "CC(=O)OCC1=C(C(=O)O)N2C(=O)[C@@H](NC(=O)Cc3cccs3)[C@H]2SC1 [Cephalothin]"
  TARGET ENTITY: "dengue virus helicase (Dengue virus type 2)"
  IC50 [µM]: 26
